# assayed.system: A disintegrin and metalloproteinase with thrombospondin motifs 5 (Homo sapiens)
# Sequence (Q9UNA0 whole entry): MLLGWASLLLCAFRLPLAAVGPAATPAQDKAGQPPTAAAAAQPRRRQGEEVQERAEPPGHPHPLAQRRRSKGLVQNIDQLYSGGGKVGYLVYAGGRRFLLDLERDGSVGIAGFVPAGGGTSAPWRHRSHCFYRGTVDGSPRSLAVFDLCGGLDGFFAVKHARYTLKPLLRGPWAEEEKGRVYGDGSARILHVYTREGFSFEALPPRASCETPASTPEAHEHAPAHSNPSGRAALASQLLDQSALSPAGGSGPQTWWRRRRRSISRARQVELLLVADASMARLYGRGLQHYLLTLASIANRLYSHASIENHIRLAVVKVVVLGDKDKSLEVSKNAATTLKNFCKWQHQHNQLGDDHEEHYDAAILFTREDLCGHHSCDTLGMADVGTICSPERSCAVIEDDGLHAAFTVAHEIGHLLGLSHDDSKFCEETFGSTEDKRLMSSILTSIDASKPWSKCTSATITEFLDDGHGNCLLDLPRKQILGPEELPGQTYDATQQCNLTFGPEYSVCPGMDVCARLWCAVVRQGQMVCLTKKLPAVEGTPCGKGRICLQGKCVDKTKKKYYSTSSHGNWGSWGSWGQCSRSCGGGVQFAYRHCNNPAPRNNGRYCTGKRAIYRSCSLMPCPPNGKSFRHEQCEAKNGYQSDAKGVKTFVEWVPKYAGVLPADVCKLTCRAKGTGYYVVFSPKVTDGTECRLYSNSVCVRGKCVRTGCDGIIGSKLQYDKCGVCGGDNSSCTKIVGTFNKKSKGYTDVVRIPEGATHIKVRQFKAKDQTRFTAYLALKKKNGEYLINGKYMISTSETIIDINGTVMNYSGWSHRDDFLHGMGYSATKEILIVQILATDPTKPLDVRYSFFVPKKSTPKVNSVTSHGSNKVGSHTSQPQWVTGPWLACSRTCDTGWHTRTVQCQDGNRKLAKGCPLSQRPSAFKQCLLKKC
# assay.comment: Inhibition of human ADAMTS5 using VQTVTWPDMELPLPRNITEGEARGSVILTVKPIFEVSPSPLKG peptide as substrate after 3 hrs by Alphascreen assay
measurement.label: pIC50
Give bare numbers, as −log10 of the molar value.

INPUT: Query: pIC50; subject: O=C(CCc1ccc(C(F)(F)F)cc1)NC[C@@]1(C2CC2)NC(=O)NC1=O
OUTPUT: 8.30

---

# assay.comment: Cmax in rat at 10 mg/kg, po
# Format: ADME, organism-based
# Design: dose 10 mg/kg, route oral
# condition.context: in vivo
measurement.label: Cmax (µM)
Answers are plain numbers, in µM.

INPUT: Please look up its Cmax: O=C1NC(=O)[C@](CNC(=O)[C@@H](Cc2ccc(C(F)(F)F)cc2)C2CC2)(C2CC2)N1
OUTPUT: 6.6

---

Target protein (sequence): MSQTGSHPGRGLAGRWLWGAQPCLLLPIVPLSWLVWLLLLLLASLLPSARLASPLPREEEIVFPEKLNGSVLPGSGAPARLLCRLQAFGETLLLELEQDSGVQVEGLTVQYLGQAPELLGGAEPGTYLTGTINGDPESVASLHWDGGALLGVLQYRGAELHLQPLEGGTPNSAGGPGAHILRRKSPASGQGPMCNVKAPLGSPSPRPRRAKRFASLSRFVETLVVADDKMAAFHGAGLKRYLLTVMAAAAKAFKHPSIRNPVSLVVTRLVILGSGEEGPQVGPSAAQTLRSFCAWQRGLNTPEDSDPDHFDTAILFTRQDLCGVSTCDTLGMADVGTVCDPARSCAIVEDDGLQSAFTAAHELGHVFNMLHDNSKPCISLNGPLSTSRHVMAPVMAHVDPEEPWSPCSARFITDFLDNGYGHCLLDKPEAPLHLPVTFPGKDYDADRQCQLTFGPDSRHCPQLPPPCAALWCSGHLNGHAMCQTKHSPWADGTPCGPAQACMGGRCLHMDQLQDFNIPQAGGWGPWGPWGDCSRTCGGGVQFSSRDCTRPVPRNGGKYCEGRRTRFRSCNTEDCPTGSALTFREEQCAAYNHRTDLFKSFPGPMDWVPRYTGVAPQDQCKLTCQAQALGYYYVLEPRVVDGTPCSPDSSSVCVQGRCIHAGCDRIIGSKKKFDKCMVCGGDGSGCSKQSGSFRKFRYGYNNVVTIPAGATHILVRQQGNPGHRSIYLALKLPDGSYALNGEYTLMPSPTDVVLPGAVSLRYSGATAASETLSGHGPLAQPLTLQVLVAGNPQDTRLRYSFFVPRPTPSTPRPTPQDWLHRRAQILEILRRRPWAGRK
measurement.label: IC50 (nM)
One number for each entry, in nM.

INPUT: Please report the recorded IC50 for O=C(CCc1ccc(C(F)(F)F)cc1)NC[C@@]1(C2CC2)NC(=O)NC1=O .
OUTPUT: 4

---

# assay.comment: AUC (0 to 24 hrs) in rat at 1 mg/kg, iv
# Type: ADME, organism-based
# Parameters: time < 24 hr, dose 1 mg/kg, route intravenous
# condition.context: in vivo
measurement.label: AUC(0-t) at 24 h (µM·h)
One number for each entry, in µM·h.

INPUT: Which value of AUC(0-t) at 24 h has been reported for O=C1NC(=O)[C@](CNC(=O)[C@@H](Cc2ccc(C(F)(F)F)cc2)C2CC2)(C2CC2)N1 in the records?
OUTPUT: 1.3

Data origin, for the record: ChEMBL document CHEMBL4011634
